Molecular target: Metabotropic glutamate receptor 4 (Homo sapiens, UniProt Q14833)
Sequence (Q14833 whole entry): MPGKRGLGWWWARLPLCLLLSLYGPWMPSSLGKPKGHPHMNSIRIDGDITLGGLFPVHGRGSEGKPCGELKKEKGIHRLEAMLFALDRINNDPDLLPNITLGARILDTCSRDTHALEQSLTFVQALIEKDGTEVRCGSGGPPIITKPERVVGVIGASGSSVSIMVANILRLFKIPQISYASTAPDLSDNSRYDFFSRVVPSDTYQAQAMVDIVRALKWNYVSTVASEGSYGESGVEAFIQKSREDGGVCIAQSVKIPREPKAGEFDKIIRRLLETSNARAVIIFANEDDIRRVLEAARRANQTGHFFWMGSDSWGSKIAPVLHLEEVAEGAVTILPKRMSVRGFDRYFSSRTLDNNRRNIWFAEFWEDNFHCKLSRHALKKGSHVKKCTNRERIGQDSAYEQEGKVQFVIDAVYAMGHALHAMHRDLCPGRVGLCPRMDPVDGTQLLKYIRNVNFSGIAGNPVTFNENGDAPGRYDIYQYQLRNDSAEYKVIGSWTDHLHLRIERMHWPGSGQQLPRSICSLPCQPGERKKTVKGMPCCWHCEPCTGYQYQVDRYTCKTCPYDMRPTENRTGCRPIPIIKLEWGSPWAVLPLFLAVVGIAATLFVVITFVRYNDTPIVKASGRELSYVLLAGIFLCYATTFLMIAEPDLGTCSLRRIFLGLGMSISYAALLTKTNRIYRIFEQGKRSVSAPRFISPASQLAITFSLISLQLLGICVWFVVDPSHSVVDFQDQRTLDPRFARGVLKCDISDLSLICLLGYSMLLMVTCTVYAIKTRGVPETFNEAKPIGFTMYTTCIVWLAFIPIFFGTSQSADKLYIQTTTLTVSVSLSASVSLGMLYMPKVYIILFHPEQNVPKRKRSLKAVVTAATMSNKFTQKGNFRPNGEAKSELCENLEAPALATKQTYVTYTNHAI
Assay: Allosteric modulator activity at human mGlu4 receptor expressed in CHO cells coexpressing Gqi5 assessed as effect on calcium flux in relative to glutamate
Format: functional, cell-based
measured_metric: Emax (%)

{"molecule": "CCCNC(=O)[C@@H]1CCCC[C@@H]1C(=O)Nc1cc(Cl)cc(Cl)c1", "observed_measurement": 57}
{"molecule": "N#C[C@@H]1CCCC[C@@H]1C(=O)Nc1cc(Cl)cc(Cl)c1", "observed_measurement": 55}
{"molecule": "CNC(=O)[C@@H]1CCCC[C@@H]1C(=O)Nc1cc(Cl)cc(Cl)c1", "observed_measurement": 106}

P: O=C(Nc1cc(Cl)cc(Cl)c1)[C@H]1CCCC[C@H]1C(=O)NCC1CC1
Q: O=C(Nc1ccccc1)[C@H]1CCCC[C@H]1C(=O)O
R: O=C(Nc1cc(Cl)cc(Cl)c1)[C@H]1CCCC[C@H]1c1nnn[nH]1
Place the items in sequence of falling Emax. When ranking, write the labels in the order the request describes.
R, P, Q
